test system: VDR:RXRa (NR concentration 270 nM, RXRa partner concentration 90 nM); assay: PBM binding z-score (relative to random genomic background probes); higher = stronger binding; sequences stand for … in GC…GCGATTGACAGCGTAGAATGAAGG
The label depends only on PBM binding z-score: MET if it is at least 0.6, NOT MET if it is smaller.

entrySequence	label
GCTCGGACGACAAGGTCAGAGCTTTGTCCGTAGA	MET
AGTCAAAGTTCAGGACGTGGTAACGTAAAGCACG	MET
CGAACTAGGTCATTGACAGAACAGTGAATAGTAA	MET
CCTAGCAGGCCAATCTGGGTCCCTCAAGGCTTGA	NOT MET
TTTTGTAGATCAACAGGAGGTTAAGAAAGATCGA	MET
CCTAGTTGGTCAGGAGGTCGCACACCGGATATGA	MET
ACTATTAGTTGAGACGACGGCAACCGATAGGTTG	NOT MET
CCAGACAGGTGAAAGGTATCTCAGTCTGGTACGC	NOT MET
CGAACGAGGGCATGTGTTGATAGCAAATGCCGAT	MET
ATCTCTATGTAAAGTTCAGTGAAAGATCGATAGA	MET
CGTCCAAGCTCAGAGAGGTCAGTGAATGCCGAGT	MET
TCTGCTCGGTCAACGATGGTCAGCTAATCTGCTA	NOT MET
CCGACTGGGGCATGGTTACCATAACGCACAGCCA	NOT MET
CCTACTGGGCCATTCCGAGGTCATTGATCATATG	MET
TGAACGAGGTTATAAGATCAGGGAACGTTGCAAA	MET
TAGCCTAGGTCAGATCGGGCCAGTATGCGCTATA	NOT MET
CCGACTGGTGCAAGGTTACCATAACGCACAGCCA	NOT MET
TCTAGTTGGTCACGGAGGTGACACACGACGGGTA	MET
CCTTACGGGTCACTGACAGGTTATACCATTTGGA	MET
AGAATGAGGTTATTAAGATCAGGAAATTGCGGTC	MET
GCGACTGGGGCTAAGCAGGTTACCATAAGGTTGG	NOT MET
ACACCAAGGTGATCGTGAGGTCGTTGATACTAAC	MET
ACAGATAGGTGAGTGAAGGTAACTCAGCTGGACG	NOT MET
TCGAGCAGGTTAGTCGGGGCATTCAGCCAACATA	MET
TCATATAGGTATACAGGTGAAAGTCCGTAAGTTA	MET
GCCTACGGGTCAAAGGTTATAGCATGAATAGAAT	MET
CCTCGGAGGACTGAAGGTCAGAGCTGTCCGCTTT	NOT MET
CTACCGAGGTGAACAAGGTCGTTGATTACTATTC	MET
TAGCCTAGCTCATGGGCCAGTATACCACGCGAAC	NOT MET
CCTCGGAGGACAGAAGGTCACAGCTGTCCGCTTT	MET
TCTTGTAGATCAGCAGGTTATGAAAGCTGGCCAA	NOT MET
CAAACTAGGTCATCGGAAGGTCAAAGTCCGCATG	MET
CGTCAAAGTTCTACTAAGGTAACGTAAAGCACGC	NOT MET
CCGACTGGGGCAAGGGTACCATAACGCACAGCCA	NOT MET
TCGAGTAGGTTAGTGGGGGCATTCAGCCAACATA	MET
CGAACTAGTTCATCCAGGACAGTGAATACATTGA	MET
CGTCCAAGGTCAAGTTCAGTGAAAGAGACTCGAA	MET
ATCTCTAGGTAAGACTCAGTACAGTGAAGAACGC	NOT MET
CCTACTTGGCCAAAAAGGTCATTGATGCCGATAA	MET
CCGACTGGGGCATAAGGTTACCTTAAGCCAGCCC	NOT MET
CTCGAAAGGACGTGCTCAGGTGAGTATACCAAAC	NOT MET
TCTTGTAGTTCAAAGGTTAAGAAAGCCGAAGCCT	MET
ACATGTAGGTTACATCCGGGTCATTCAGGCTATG	MET
